# System: PC-3 prostate
# protocol-summary: NCI-60 one-dose screen, 48 h
# condition-details: 10 µM unless noted
The panel holds about 83,000 compounds, 20% with a hit somewhere; the sample as a whole holds those more often. Calls of active or inactive are those of the source. The calls were made as follows: active = growth percent below 10; inactive = the rest.
Outcome field: choose from active, inactive

compound	answer-label
Cc1c(C(=O)Nc2ccccc2F)sc2c(=O)[nH]cnc12	inactive
O=C(/C=C/c1cn(-c2ccccc2)nc1-c1ccccc1)OCc1cn(-c2cccc([N+](=O)[O-])c2)nn1	inactive
O=C1CCCN1C1CCN2CCCc3cccc1c32 (centres undefined)	inactive
CCCNCCC(C)=O	inactive
CCOC(=O)Nc1ccc2nc(N3CCCCCC3)sc2c1	inactive
CS(=O)(=O)c1ccc(Cl)c([N+](=O)[O-])c1	inactive
O=C1OC(/C=C/c2ccccc2)=NC/1=C/c1ccccc1[N+](=O)[O-]	inactive
CC(=O)Nc1ccc(/C=N/N2CCCCCC2)cc1	inactive

Query: Hi, sorry to bother you, what did the test record for CCOC(=O)Nc1ccc2nc(Sc3ccc(Cl)cc3)sc2c1 ?
Reply: inactive

Query: Hi, sorry to bother you, what did the test record for c1csc(-c2cnc3nonc3n2)c1 ?
Reply: inactive
